Give measured inhibition for each item. Keep answers brief.
# tgt: Photoreceptor-specific nuclear receptor (Homo sapiens) (UniProt Q9Y5X4)
# Sequence (Q9Y5X4 whole entry, looked up, the tested form may be a part): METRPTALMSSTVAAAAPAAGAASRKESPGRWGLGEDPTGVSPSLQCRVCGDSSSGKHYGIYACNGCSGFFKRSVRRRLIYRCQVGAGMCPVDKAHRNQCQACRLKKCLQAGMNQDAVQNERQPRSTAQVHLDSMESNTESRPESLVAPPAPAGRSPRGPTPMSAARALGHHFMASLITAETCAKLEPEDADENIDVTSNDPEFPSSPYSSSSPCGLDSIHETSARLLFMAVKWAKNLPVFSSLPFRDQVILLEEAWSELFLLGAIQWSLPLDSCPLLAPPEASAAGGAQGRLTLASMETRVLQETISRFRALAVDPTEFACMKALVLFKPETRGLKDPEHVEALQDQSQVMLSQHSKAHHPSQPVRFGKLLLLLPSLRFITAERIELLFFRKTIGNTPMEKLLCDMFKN
# experiment: NCOR release from NR2E3 in cells – cell-based, luminescence, CHO-S, Gal4-NCOR/VP16-NR2E3, primary screen (AID 602229);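 further: 0% = DMSO with NR2E3 transfected cells and 100% = cells lacking NR2E3 construct; higher means lower luciferase signal from less NR2E3 corepressor binding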
# run-parameters: CHO-S Gal4-NCOR/VP16-NR2E3 two-hybrid, luciferase; at 3.98 µM; stronger effect = higher value
The campaign covered roughly 360,000 compounds. About 1,300 (0.36%) were called active. Only a selection was taken, and actives are over-represented in it overall.
Numbers only, in %.

compound="CC(=O)OC1C2(CC3N4C(=O)C5(CO)SSC4(CC31O)C(=O)N5C)OC(C)C(C)(C)C2=O (centres undefined)" uom=% test_result=99.4
compound=COC(=O)C1=C(c2ccc(F)cc2OCc2ccccc2)C[C@@H]2CC[C@H]1N2C(=O)NCc1ccc(C(C)(C)C)cc1 uom=% test_result=8.82
compound=CC(C)CN1Cc2cc(N3CCCCC3)ccc2-n2nncc2C1 uom=% test_result=3.03
compound=CNC(=O)N(C)c1nnc(C(C)(C)C)s1 uom=% test_result=-10.2
compound=Cc1nn(-c2ccccc2)c(C)c1NC(=O)COC(=O)Cc1ccccc1 uom=% test_result=8.66

Your task in this section: give inhibition for each listed record.
1. COc1ccc(Br)cc1CNCCc1cccc(Cl)c1
2. CCC(C)(O)C(=O)OC1C(=O)OC2CC3C(C)=CC(=O)C(O)C3(C)C3C4(O)OCC23C1C(C)C4O (centres undefined)
3. CN(C)P(=S)(Nc1ccccc1)C(Cl)(Cl)Cl (centres undefined)
4. COC(=O)N(c1ccc(OC)cc1)P1(=S)OCCC(C)O1 (centres undefined)

1. 24.3
2. 99
3. 5.18
4. -15.4
